Attribution: patent US20240261274A1

- tested_on: Full length wild-type cereblon CRBN (Homo sapiens, UniProt Q96SW2)
- Construct: Full length wild-type cereblon CRBN (80.0 nM, 10 μL) was incubated in assay buffer
- Sequence (Q96SW2 whole entry): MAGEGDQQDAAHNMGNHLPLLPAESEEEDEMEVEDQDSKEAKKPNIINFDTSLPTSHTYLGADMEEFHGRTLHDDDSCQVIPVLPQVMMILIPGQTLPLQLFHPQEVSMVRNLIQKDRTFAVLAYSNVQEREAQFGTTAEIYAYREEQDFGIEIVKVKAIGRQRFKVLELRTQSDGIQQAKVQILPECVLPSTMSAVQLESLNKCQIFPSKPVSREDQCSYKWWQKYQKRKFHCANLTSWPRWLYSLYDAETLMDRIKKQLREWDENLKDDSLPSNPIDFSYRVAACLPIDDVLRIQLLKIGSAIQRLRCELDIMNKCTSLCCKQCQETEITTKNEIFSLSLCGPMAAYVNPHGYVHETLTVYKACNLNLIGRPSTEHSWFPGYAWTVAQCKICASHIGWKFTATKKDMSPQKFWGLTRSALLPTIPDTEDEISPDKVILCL
- assay_procedure: Fluorescence polarization (FP) assay indicating cereblon binding
- applied_conditions: Table 3B; read-out: rFP IC50
assay_readout: IC50

Below, 3 compounds whose answers are already recorded.
CC1(c2ccc(NC(=O)OCc3cc(F)c4c(c3)C(=O)N(C3CCC(=O)NC3=O)C4)cc2)CC1 (stereo not shown)    > 1900 nM
Cc1ccc(NC(=O)OCc2ccc3c(c2C)C(=O)N(C2CCC(=O)NC2=O)C3)cc1Cl (stereo not shown)    ≤ 600 nM
COc1cc(COC(=O)Nc2cccc(C(C)(C)C)c2)cc2c1CN(C1CCC(=O)NC1=O)C2=O (stereo not shown)    ≤ 600 nM

Report IC50 for Cc1cc(Cl)cc(NC(=O)OCc2cc(F)c3c(c2)C(=O)N(C2CCC(=O)NC2=O)C3)c1 (stereo not shown) please. 1200 to 1900 nM

Report IC50 for O=C1CCC(N2Cc3c(F)cc(COC(=O)Nc4cc(Cl)cc(OC(F)F)c4)cc3C2=O)C(=O)N1 (stereo not shown) please. > 1900 nM

Report IC50 for O=C1CCC(N2Cc3c(F)cc(COC(=O)Nc4ccc(-c5ccccn5)cc4)cc3C2=O)C(=O)N1 (stereo not shown) please. ≤ 600 nM

Report IC50 for COc1cc(COC(=O)Nc2cnc(-c3ccccc3)c(C)c2)cc2c1CN(C1CCC(=O)NC1=O)C2=O (stereo not shown) please. ≤ 600 nM

---

Listed next: entries and their corresponding pIC50.
- tested_on: Full length wild-type cereblon CRBN (Homo sapiens, UniProt Q96SW2)
- Construct: Full length wild-type cereblon CRBN (80.0 nM, 10 μL) was incubated in assay buffer
- assay_procedure: Fluorescence polarization (FP) assay indicating cereblon binding
- applied_conditions: Table 3B; read-out: rFP IC50
pIC50: −log10 of the molar value.

O=C1CCC(N2Cc3c(F)cc(COC(=O)Nc4ccc(-c5ccccc5F)c(F)c4)cc3C2=O)C(=O)N1 (stereo not shown) [Compound 529]    < 5.72
O=C1CCC(N2Cc3c(F)cc(COC(=O)Nc4ccc(F)c(OC(F)(F)F)c4)cc3C2=O)C(=O)N1 (stereo not shown) [Compound 514]    < 5.72
Cc1ccc(NC(=O)OCc2cc(F)c3c(c2)C(=O)N(C2CCC(=O)NC2=O)C3)cc1Cl (stereo not shown) [Compound 503]    < 5.72
O=C1CCC(N2Cc3c(F)cc(COC(=O)Nc4ccc(C5CCC5)cc4)cc3C2=O)C(=O)N1 (stereo not shown) [Compound 522]    < 5.72
Cc1ccc(NC(=O)OCc2cc(F)c3c(c2)C(=O)N(C2CCC(=O)NC2=O)C3)cc1OC(F)F (stereo not shown) [Compound 535]    < 5.72

Report pIC50 for COc1cc(COC(=O)Nc2ccc3c(c2)OCC3(C)C)cc2c1CN(C1CCC(=O)NC1=O)C2=O (stereo not shown) [Compound 537] please. ≥ 6.22

Report pIC50 for COc1cc(COC(=O)Nc2ccc(F)c(OC(F)(F)F)c2)cc2c1CN(C1CCC(=O)NC1=O)C2=O (stereo not shown) [Compound 539] please. 5.72 to 5.92

---

- tested_on: Full length wild-type cereblon CRBN (Homo sapiens, UniProt Q96SW2)
- Construct: Full length wild-type cereblon CRBN (80.0 nM, 10 μL) was incubated in assay buffer
- assay_procedure: Fluorescence polarization (FP) assay indicating cereblon binding
- applied_conditions: Table 3B; read-out: rFP IC50
pIC50: −log10 of the molar value.
assay_readout: pIC50

O=C1CCC(N2Cc3c(F)cc(COC(=O)Nc4cc(Cl)cc(Cl)c4)cc3C2=O)C(=O)N1 (stereo not drawn)    < 5.72

Report pIC50 for Cc1cc(C)cc(NC(=O)OCc2cc(F)c3c(c2)C(=O)N(C2CCC(=O)NC2=O)C3)c1 (stereo not drawn) please. < 5.72

Report pIC50 for O=C1CCC(N2Cc3c(F)cc(COC(=O)Nc4cc(F)cc(OC(F)F)c4)cc3C2=O)C(=O)N1 (stereo not drawn) please. < 5.72
